- Tested on: Cortex
- protocol details: Neuroprotective activity in Sprague-Dawley rat brain cortex slices assessed as reduction of oxygen/glucose deprivation-induced glutamate release at minimal effective concentration
- Assay type: functional
- Design: scale not given: the % may be the effect or the level left
Catalogue of Activity values
Note: a bare number is incomplete; add the unit.

These solved cases illustrate the format of a correct answer.
| structure smiles string | Activity |
| --- | --- |
| Nc1nc2ccc(OC(F)(F)F)cc2s1 | 100% |
| CC(C)NC(=S)Nc1nc2ccc(OC(F)(F)F)cc2s1 | 80.3% |
| CCCNC(=S)Nc1nc2ccc(OC(F)(F)F)cc2s1 | 94.2% |
| CCNC(=S)Nc1nc2ccc(OC(F)(F)F)cc2s1 | 80.1% |

*Q* Output Activity of C/C(=N\c1nc2ccc(OC(F)(F)F)cc2s1)N(C)C
*A* 100%

*Q* Output Activity of CCCCNC(=S)Nc1nc2ccc(OC(F)(F)F)cc2s1
*A* 100%

###

- protocol details: Antioxidant activity assessed as ABTS+ radical scavenging activity by spectrophotometry relative to 1 mM Trolox
- Format: functional
Kind request: treat 0.5 as inclusive, so Ratio at 0.5 or higher is satisfied, anything lower is not satisfied.

| structure smiles string | label |
| --- | --- |
| O=c1c2ccccc2[se]n1-c1ccccc1 | not satisfied |

*Q* Hello, I need to know if CC(C)NC(=S)Nc1nc2ccc(OC(F)(F)F)cc2s1 has measured Ratio not below 0.5. Thanks!
*A* satisfied

*Q* Hello, I need to know if CCNC(=S)Nc1nc2ccc(OC(F)(F)F)cc2s1 has measured Ratio not below 0.5. Thanks!
*A* satisfied

*Q* Hello, I need to know if CCCCNC(=S)Nc1nc2ccc(OC(F)(F)F)cc2s1 has measured Ratio not below 0.5. Thanks!
*A* satisfied

###

- Tested on: Cortex
- protocol details: Neuroprotective activity in Sprague-Dawley rat brain cortex slices assessed as drug concentration causing maximum reduction of oxygen/glucose deprivation-induced glutamate release
- Assay type: functional
- condition set: read-out: MEC
measurement type: minimal effective concentration (µM)
Note: unit µM is implicit; provide only the numeric part.

These solved cases illustrate the format of a correct answer.
| compound | unit spec | minimal effective concentration |
| --- | --- | --- |
| Nc1nc2ccc(OC(F)(F)F)cc2s1 [RILUZOLE] | µM | 1 |
| CC(C)NC(=S)Nc1nc2ccc(OC(F)(F)F)cc2s1 | µM | 0.1 |
| C/C(=N\c1nc2ccc(OC(F)(F)F)cc2s1)N(C)C | µM | 0.1 |

*Q* Output minimal effective concentration of CCNC(=S)Nc1nc2ccc(OC(F)(F)F)cc2s1
*A* 1

*Q* Output minimal effective concentration of CCCCNC(=S)Nc1nc2ccc(OC(F)(F)F)cc2s1
*A* 1

*Q* Output minimal effective concentration of CCCNC(=S)Nc1nc2ccc(OC(F)(F)F)cc2s1
*A* 0.01

###

- System: Cortex
- protocol details: Neuroprotective activity in Sprague-Dawley rat brain cortex slices assessed as interval of drug concentration causing reduction of oxygen/glucose deprivation-induced glutamate release
- Format: functional
Catalogue of Activity values
Note: unit µM is implicit; provide only the numeric part.

These solved cases illustrate the format of a correct answer.
| structure smiles string | unit spec | Activity |
| --- | --- | --- |
| C/C(=N\c1nc2ccc(OC(F)(F)F)cc2s1)N(C)C | µM | 0.1 |
| CC(C)NC(=S)Nc1nc2ccc(OC(F)(F)F)cc2s1 | µM | 0.01 |
| CCCNC(=S)Nc1nc2ccc(OC(F)(F)F)cc2s1 | µM | 0.01 |
| CCCCNC(=S)Nc1nc2ccc(OC(F)(F)F)cc2s1 | µM | 0.01 |
| CCNC(=S)Nc1nc2ccc(OC(F)(F)F)cc2s1 | µM | 1 |

*Q* Output Activity of Nc1nc2ccc(OC(F)(F)F)cc2s1
*A* 1
